- Assay: In vivo pharmacokinetics of pyrotinib in rats with or without azole pretreatment
- Design: species or system Sprague-Dawley rats
- Assay Setup: male, Sprague-Dawley, rat, plasma, po, 8 mg/kg, 8 mg/kg pyrotinib oral, after 40 mg/kg ketoconazole for 7 days, n = 6
Measurement Type: AUC(0-t) (ng·h/mL)

compound=CCOc1cc2ncc(C#N)c(Nc3ccc(OCc4ccccn4)c(Cl)c3)c2cc1NC(=O)/C=C/[C@H]1CCCN1C measurement_type=AUC(0-t) experimental_result=36300

====

- Assay: In vivo pharmacokinetics of pyrotinib in rats with or without azole pretreatment
- Design: species or system Sprague-Dawley rats
- Assay Setup: male, Sprague-Dawley, rat, plasma, po, 8 mg/kg, 8 mg/kg pyrotinib oral, control group (0.5% CMC-Na), n = 6, read-out: Vz/F
Measurement Type: Vd/F (L/kg)

compound=CCOc1cc2ncc(C#N)c(Nc3ccc(OCc4ccccn4)c(Cl)c3)c2cc1NC(=O)/C=C/[C@H]1CCCN1C measurement_unit=L/kg experimental_result=0.81
